Provenance of the data: the Kinase Knowledgebase extract (Sharma et al. 2016)

Consider molecules characterized by their IC50 with EGFR (human).
readout kind: IC50 (µM)

[A] COc1cc2nccc(Oc3ccc(NC(=O)c4ccc(Br)cc4)cc3)c2cc1OC
[B] COc1cc2nccc(Oc3ccc(N(C)C(=O)c4ccc(C(C)(C)C)cc4)cc3)c2cc1OC
Request: Param metric = IC50; output whichever of A , B has the minimum value. Identify your selection by its label.
Result: B

---

Consider compounds characterized by their pIC50 with EGFR (human) (UniProt P00533).
Sequence (P00533 whole entry, looked up): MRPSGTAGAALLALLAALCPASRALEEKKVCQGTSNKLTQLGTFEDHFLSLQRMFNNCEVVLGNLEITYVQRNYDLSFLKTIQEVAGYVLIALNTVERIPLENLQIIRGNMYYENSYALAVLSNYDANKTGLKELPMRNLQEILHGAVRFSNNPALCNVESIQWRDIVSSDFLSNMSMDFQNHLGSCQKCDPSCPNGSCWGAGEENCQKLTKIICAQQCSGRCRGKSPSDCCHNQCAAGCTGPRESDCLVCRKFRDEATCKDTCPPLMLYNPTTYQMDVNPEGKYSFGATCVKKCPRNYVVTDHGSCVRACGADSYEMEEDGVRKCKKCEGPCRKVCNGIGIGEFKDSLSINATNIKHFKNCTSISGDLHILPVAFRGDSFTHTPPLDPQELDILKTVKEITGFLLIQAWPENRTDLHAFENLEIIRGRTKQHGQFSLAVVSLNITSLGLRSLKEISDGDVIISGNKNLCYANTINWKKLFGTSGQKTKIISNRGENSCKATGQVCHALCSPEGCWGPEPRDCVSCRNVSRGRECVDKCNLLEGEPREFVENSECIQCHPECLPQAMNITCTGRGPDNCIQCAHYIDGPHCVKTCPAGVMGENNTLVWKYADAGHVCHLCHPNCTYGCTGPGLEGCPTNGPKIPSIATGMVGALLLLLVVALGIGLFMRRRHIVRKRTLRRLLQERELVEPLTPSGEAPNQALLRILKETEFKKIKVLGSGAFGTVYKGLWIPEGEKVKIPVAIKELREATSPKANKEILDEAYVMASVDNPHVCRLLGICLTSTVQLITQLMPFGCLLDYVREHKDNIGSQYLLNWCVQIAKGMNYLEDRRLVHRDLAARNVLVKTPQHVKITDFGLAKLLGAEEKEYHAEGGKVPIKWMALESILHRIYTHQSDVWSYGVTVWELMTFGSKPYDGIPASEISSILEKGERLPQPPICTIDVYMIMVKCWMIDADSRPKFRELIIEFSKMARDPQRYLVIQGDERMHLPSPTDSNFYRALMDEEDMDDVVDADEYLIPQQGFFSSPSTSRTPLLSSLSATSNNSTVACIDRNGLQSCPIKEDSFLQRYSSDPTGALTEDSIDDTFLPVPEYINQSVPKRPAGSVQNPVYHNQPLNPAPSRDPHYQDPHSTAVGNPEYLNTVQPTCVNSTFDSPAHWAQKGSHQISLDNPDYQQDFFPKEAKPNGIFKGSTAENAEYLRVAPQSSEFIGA
pIC50: −log10 of the molar value.
readout kind: pIC50

Worked examples follow.
COc1cc2nccc(Oc3ccc(C(=O)c4cccc(F)c4)cc3)c2cc1OC = 4.55
COc1cc2nccc(Oc3cccc(F)c3)c2cc1OC = 4.62

[I] COc1cc2nccc(Oc3ccc(C(=O)c4cccs4)cc3)c2cc1OC
[II] COc1cc2nccc(Oc3ccc(C(=O)Nc4ccc(C(C)(C)C)cc4)cc3)c2cc1OC
[III] COc1cc2nccc(Oc3cccc(NC(=O)c4ccc(C(C)(C)C)cc4)c3)c2cc1OC
Request: Ascending sort, pIC50. Form entry: labels listed in requested order.
Result: II, I, III
(II: 4.52, I: 4.80, III: 6.19)
